# assayed target: recombinant PRL-3 (Homo sapiens)
# Construct: 6xHis (N, cleaved yes); made in house; host or cells: E. coli One Shot BL21 Star
# method description: In vitro phosphatase assay (DiFMUP hydrolysis), PRL-3; note: test concentration or dose not given here
# Type: biochemical
# condition: FDA-approved drug screen; compared to DMSO
observation type: % Phosphatase Activity (compared to DMSO) PRL-3 (%)
Write the answer as a number in %, unit excluded.

compound	readout units	assay result
C[C@]12C=CC(=O)C=C1CC[C@@H]1[C@@H]2C(=O)C[C@@]2(C)[C@H]1CC[C@]2(O)C(=O)CO	%	80
Cl.O=C(OCC(O)CO)c1ccccc1Nc1ccnc2cc(Cl)ccc12 (stereo not drawn) [Glafenine HCl]	%	80

Let's switch to this compound now.
IN: Output measured % Phosphatase Activity (compared to DMSO) PRL-3 for this item: O=C1[C@H](CC[C@H](O)c2ccc(F)cc2)[C@@H](c2ccc(O)cc2)N1c1ccc(F)cc1
OUT: 80

====

# assayed target: recombinant PRL-1 (Homo sapiens)
# Construct: 6xHis (N, cleaved yes); made in house; host or cells: E. coli One Shot BL21 Star
# Sequence (Q93096 whole entry): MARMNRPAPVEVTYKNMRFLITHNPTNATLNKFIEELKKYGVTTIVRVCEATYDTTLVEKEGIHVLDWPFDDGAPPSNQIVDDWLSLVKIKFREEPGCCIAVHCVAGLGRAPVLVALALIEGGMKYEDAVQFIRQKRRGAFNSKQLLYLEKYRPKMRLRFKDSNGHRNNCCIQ
# method description: In vitro phosphatase assay (DiFMUP hydrolysis), PRL-1; note: test concentration or dose not given here
# Type: biochemical
# condition: FDA-approved drug screen; compared to DMSO
observation type: % Phosphatase Activity (compared to DMSO) PRL-1 (%)
Write the answer as a number in %, unit excluded.

Reference set (6 entries):
compound	readout units	assay result
CCN1CCC[C@H]1CNC(=O)c1cc(S(N)(=O)=O)ccc1OC [Levosulpiride]	%	98
CN(C)CCc1c[nH]c2ccc(Cn3cncn3)cc12 [Rizatriptan Benzoate]	%	98
CC#C[C@]1(O)CC[C@H]2[C@@H]3CCC4=CC(=O)CCC4=C3[C@@H](c3ccc(N(C)C)cc3)C[C@@]21C	%	96
CC(=O)NC(CC(C)C)C(=O)O (stereo not drawn)	%	110
Cc1ccc(-n2nc(C(C)(C)C)cc2NC(=O)NCc2cc(F)ccc2Oc2ccc3c(cnn3CCO)c2)cc1	%	106
CC(C)(Oc1ccc(Cl)cc1)C(=O)O	%	99

IN: Output measured % Phosphatase Activity (compared to DMSO) PRL-1 for this item: CC[C@H]1OC(=O)[C@H](C)[C@@H](O[C@H]2C[C@@](C)(OC)[C@@H](O)[C@H](C)O2)[C@H](C)[C@@H](O[C@@H]2O[C@H](C)C[C@H](N(C)C)[C@H]2O)[C@](C)(O)C[C@@H](C)CN(C)[C@H](C)[C@@H](O)[C@]1(C)O [Azithromycin]
OUT: 94

IN: Output measured % Phosphatase Activity (compared to DMSO) PRL-1 for this item: C#C[C@]1(O)CC[C@H]2[C@@H]3CCC4=CCCC[C@@H]4[C@H]3C(=C)C[C@@]21CC
OUT: 104

IN: Output measured % Phosphatase Activity (compared to DMSO) PRL-1 for this item: CCN(CC)C(=S)SSC(=S)N(CC)CC
OUT: 103

====

# assayed target: recombinant PRL-2 (Homo sapiens)
# Construct: 6xHis (N, cleaved yes); made in house; host or cells: E. coli One Shot BL21 Star
# method description: In vitro phosphatase assay (DiFMUP hydrolysis), PRL-2
# Type: biochemical
# condition: FDA-approved drug screen; activity compared to DMSO
Counter-ions that a name gives are not always drawn.
# % Phosphatase Activity (compared to DMSO) PRL-2 listing for each entry below
Write the answer as a number in %, unit excluded.

Reference set (2 entries):
molecule	readout units	assay result
Cc1ccsc1C(=CCCN1CCC[C@@H](C(=O)O)C1)c1sccc1C [Tiagabine hydrochloride]	%	97
CC(C)(C)c1ccc(C(O)CCCN2CCC(C(O)(c3ccccc3)c3ccccc3)CC2)cc1 (centres unmarked) [Terfenadine]	%	100

IN: Output measured % Phosphatase Activity (compared to DMSO) PRL-2 for this item: O=C(O)c1cc(/N=N/c2ccc(S(=O)(=O)Nc3ccccn3)cc2)ccc1O [Sulfasalazine]
OUT: 50

IN: Output measured % Phosphatase Activity (compared to DMSO) PRL-2 for this item: CCOC(=O)[C@@H](N)Cc1ccc(-c2cc(O[C@H](c3ccc(Cl)cc3-n3ccc(C)n3)C(F)(F)F)nc(N)n2)cc1.O=C(O)CNC(=O)c1ccccc1 [Telotristat Etiprate (LX 1606 Hippurate)]
OUT: 108

IN: Output measured % Phosphatase Activity (compared to DMSO) PRL-2 for this item: CC[C@H]1OC(=O)C[C@@H](O)[C@H](C)[C@@H](O[C@@H]2O[C@H](C)[C@@H](O)[C@H](N(C)C)[C@H]2O)[C@@H](CCN2C[C@H](C)C[C@H](C)C2)C[C@@H](C)C(=O)/C=C/C(C)=C/[C@@H]1CO[C@@H]1O[C@H](C)[C@@H](O)[C@@H](OC)[C@H]1OC [Tilmicosin]
OUT: 88

====

# % Phosphatase Activity (compared to DMSO) PRL-3 listing for each entry below
# assayed target: recombinant PRL-3 (Homo sapiens, UniProt O75365)
# Construct: 6xHis (N, cleaved yes); made in house; host or cells: E. coli One Shot BL21 Star
# Sequence (O75365 whole entry): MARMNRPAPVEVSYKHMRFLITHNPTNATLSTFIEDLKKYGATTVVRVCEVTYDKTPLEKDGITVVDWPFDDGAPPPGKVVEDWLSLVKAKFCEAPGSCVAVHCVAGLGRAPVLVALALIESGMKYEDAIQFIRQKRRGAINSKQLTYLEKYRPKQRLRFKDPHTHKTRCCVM
# method description: In vitro phosphatase assay (DiFMUP hydrolysis), PRL-3; note: test concentration or dose not given here
# Type: biochemical
# condition: FDA-approved drug screen; activity compared to DMSO
Counter-ions that a name gives are not always drawn.
In your response, put the unit directly after the numeric value.

molecule	assay result
N[C@@H]1CN(c2c(F)cc3c(=O)c(C(=O)O)cn([C@@H]4C[C@@H]4F)c3c2Cl)CC12CC2.O [Sitafloxacin Hydrate]	81%
CC1(C)[C@H](C(=O)O)N2C(=O)C[C@H]2S1(=O)=O [Sulbactam]	81%
COc1ccc(CN2CCNCC2)c(OC)c1OC [Trimetazidine dihydrochloride]	80%

IN: Output measured % Phosphatase Activity (compared to DMSO) PRL-3 for this item: COc1ccc(NS(=O)(=O)c2ccc(N)cc2)nn1 [Sulfamethoxypyridazine]
OUT: 77%

IN: Output measured % Phosphatase Activity (compared to DMSO) PRL-3 for this item: C[C@H](CCC(=O)O)[C@H]1CC[C@H]2[C@@H]3[C@@H](O)C[C@@H]4C[C@H](O)CC[C@]4(C)[C@H]3CC[C@]12C [Ursodiol]
OUT: 77%

IN: Output measured % Phosphatase Activity (compared to DMSO) PRL-3 for this item: Cc1[nH]c(/C=C2\C(=O)Nc3ccccc32)c(C)c1CCC(=O)O [TSU-68 (SU6668, Orantinib)]
OUT: 52%

IN: Output measured % Phosphatase Activity (compared to DMSO) PRL-3 for this item: CCCc1nn(C)c2c(=O)[nH]c(-c3cc(S(=O)(=O)N4CCN(C)CC4)ccc3OCC)nc12.CS(=O)(=O)O [Sildenafil Mesylate]
OUT: 94%

IN: Output measured % Phosphatase Activity (compared to DMSO) PRL-3 for this item: CC(C)(C)C#Cc1cc(N(C(=O)[C@H]2CC[C@H](C)CC2)[C@H]2CC[C@H](O)CC2)c(C(=O)O)s1 [VX-222 (VCH-222, Lomibuvir)]
OUT: 76%

IN: Output measured % Phosphatase Activity (compared to DMSO) PRL-3 for this item: CCC1=C[C@@H]2CN(C1)Cc1c([nH]c3ccccc13)[C@@](C(=O)OC)(c1cc3c(cc1OC)N(C)[C@H]1[C@@](O)(C(=O)OC)[C@H](OC(C)=O)[C@]4(CC)C=CCN5CC[C@]31[C@@H]54)C2 [Vinorelbine Tartrate]
OUT: 83%

IN: Output measured % Phosphatase Activity (compared to DMSO) PRL-3 for this item: Cc1noc(NS(=O)(=O)c2ccc(N)cc2)c1C [Sulfisoxazole]
OUT: 89%

IN: Output measured % Phosphatase Activity (compared to DMSO) PRL-3 for this item: NS(=O)(=O)c1cc2c(cc1Cl)NC(C(Cl)Cl)NS2(=O)=O (centres unmarked) [Trichlormethiazide]
OUT: 75%

====

# assayed target: recombinant PRL-2 (Homo sapiens, UniProt Q12974)
# Construct: 6xHis (N, cleaved yes); made in house; host or cells: E. coli One Shot BL21 Star
# Sequence (Q12974 whole entry): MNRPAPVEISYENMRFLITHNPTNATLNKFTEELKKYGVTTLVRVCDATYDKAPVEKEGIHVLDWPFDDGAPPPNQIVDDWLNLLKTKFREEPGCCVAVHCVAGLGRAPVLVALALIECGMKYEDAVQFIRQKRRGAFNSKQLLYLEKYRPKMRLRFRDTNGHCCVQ
# method description: In vitro phosphatase assay (DiFMUP hydrolysis), PRL-2;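 note: PRL-2 activity read as DiFMUP hydrolysis after 20 min at room temperature with drug, enzyme first pre-reduced at 4 °C for 20 min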
# Assay type: biochemical
# condition: FDA-approved drug screen; compared to DMSO
Counter-ions that a name gives are not always drawn.
observation type: % Phosphatase Activity (compared to DMSO) PRL-2 (%)
Write the answer as a number in %, unit excluded.

compound	assayed target	assay result
CNC[C@H](O)[C@@H](O)[C@H](O)[C@H](O)CO.Cc1c(Nc2ncccc2C(=O)O)cccc1C(F)(F)F	recombinant PRL-2 (Homo sapiens, UniProt Q12974)	88
CNCC[C@@H](Oc1ccccc1C)c1ccccc1 [Atomoxetine HCl]	recombinant PRL-2 (Homo sapiens, UniProt Q12974)	109
CC(C)(C)NC(=O)[C@H]1CC[C@H]2[C@@H]3CC[C@H]4NC(=O)C=C[C@]4(C)[C@H]3CC[C@]12C [Finasteride]	recombinant PRL-2 (Homo sapiens, UniProt Q12974)	87
C[C@@H]1C/C=C/C=C/C=C/C=C/[C@H](O[C@@H]2O[C@H](C)[C@@H](O)[C@H](N)[C@@H]2O)C[C@@H]2O[C@](O)(C[C@@H](O)C[C@H]3O[C@@H]3/C=C/C(=O)O1)C[C@H](O)[C@H]2C(=O)O	recombinant PRL-2 (Homo sapiens, UniProt Q12974)	82

IN: Output measured % Phosphatase Activity (compared to DMSO) PRL-2 for this item: O=C(O)c1ccccc1
OUT: 101

IN: Output measured % Phosphatase Activity (compared to DMSO) PRL-2 for this item: COc1ccc(C(=O)CC(=O)c2ccc(C(C)(C)C)cc2)cc1
OUT: 68

IN: Output measured % Phosphatase Activity (compared to DMSO) PRL-2 for this item: Cc1nc(Nc2ncc(C(=O)Nc3c(C)cccc3Cl)s2)cc(N2CCN(CCO)CC2)n1 [Dasatinib Monohydrate]
OUT: 79

IN: Output measured % Phosphatase Activity (compared to DMSO) PRL-2 for this item: CO[C@H]1/C=C/O[C@@]2(C)Oc3c(C)c(O)c4c(O)c(c(/C=N/N5CCN(C)CC5)c(O)c4c3C2=O)NC(=O)/C(C)=C\C=C\[C@H](C)[C@H](O)[C@@H](C)[C@@H](O)[C@@H](C)[C@H](OC(C)=O)[C@@H]1C
OUT: 49
